Hi there, I'd appreciate the recorded pIC50 for every entry that follows.
- System: Vero cells
- Test Method Notes: Cytotoxicity resazurin assay
- Assay type: cell-based
- Protocol Conditions: Chlorocebus sabaeus, 48 hours, ±standard deviation, maximum concentration 2 mM
- Experimental: The cytotoxicity of the synthesised compounds was evaluated using the resazurin assay. The assay involves live cells converting oxidized blue resazurin dye to pink, highly fluorescent resorufin through irreversible enzymatic reduction.[44] […] GraphPad Prism 5 was used to calculate the IC50 and Z‐score for each compound's biological replicate. The mean IC50 of the biological replicates and standard deviation (SD) was calculated to determine the final IC50 of each compound.
Remember the convention: pIC50 equals -log10 of concentration in molar.

### Prompt Using the record for O=S1(=O)c2ccccc2N=CN1CCOc1ccccc1 , state its measured pIC50.
### Response 3.01

### Prompt Please supply the value of reported pIC50 for the item O=S1(=O)c2ccccc2N=CN1CCO
### Response 3.12

### Prompt Quick one: give measured pIC50 for CCOCCOCCN1C=Nc2ccccc2S1(=O)=O
### Response 3.14

### Prompt Return value of pIC50 for input COCCN1C=Nc2ccccc2S1(=O)=O , no commentary.
### Response 3.30

### Prompt Could you please provide reported pIC50 for C#CCN1C=Nc2ccccc2S1(=O)=O ? Thanks!
### Response 3.27

### Prompt Tell me pIC50 reported for COCCOCCN1C=Nc2ccccc2S1(=O)=O
### Response 3.01

### Prompt Supply reported pIC50 belonging to this molecule: CCOCCN1C=Nc2ccccc2S1(=O)=O
### Response 3.33

### Prompt For O=S1(=O)c2ccccc2N=CN1CCOc1ccc(Cl)cc1 , write its pIC50.
### Response 3.13

### Prompt State, in one line, measured pIC50 of COCCOCCOCCN1C=Nc2ccccc2S1(=O)=O
### Response 3.00

Provenance of the data: paper PMC11741150
